Target: UPR counterscreen luciferase reporter, luminescence
Test: luciferase reporter activation, UPR counterscreen line – cell-based, luminescence, counter-screen for adaptive UPR activator project, dose response (AID 489027)
Calls of active or inactive are those of the source. No rule for the calls is given here.
Labels: Y for active, N for inactive

{"compound string": "CN(C)c1ccc(/C=N/NC(=O)c2ccc(NC(=O)c3ccccc3)cc2)cc1", "category": "N"}
{"compound string": "CCc1ccc(N2C(=O)NC(=O)/C(=C\\c3cccn3CCOc3ccc(C(C)C)cc3)C2=O)cc1", "category": "Y"}
{"compound string": "COc1ccc(C(=O)Oc2cc3c4c(c2)C(C)=CC(C)(C)N4C(=O)C3=O)cc1OC", "category": "N"}
{"compound string": "OCCNc1nc(Nc2ccc(Cl)c(Cl)c2)nc2ccccc12", "category": "Y"}
{"compound string": "O=C(/C=C/c1ccccc1)c1ccccc1O", "category": "Y"}
{"compound string": "O=C(Nc1ccc(O)c2c(=O)cc(-c3cccc(Cl)c3)oc12)c1cccc(Cl)c1", "category": "N"}
{"compound string": "O=C(Nc1ccc(-c2nc3cc(NC(=O)c4cccs4)ccc3o2)cc1)c1cccs1", "category": "Y"}
{"compound string": "CC(C)N(C(=O)[C@H]1C[C@H](CC(=O)NCC23CC4CC(CC(C4)C2)C3)C(=O)N2CCc3c([nH]c4ccc(Cl)cc34)[C@]12C)C(C)C", "category": "N"}
{"compound string": "NC(=S)N/N=C/c1ccc(C23CC4CC(CC(C4)C2)C3)cc1", "category": "Y"}
